- TARGET_OF_ASSAY: human Edg-1 (S1P1) (Homo sapiens)
- Construct: expressed in transfected cells; host or cells: HEK-293
- Sequence (P21453 whole entry): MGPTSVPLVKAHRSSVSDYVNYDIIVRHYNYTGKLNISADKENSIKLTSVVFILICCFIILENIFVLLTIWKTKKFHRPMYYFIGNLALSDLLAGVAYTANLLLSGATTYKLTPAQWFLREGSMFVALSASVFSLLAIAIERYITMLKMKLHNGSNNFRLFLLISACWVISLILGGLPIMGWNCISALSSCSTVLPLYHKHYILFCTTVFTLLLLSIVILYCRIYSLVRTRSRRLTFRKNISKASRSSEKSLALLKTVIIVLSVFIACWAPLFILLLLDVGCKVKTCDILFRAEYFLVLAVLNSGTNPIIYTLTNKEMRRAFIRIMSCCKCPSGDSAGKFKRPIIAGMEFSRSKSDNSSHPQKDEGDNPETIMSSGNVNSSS
- EXPERIMENT_SUMMARY: S1P1 binding assay: inhibition of [33P]-S1P binding to membrane fraction of HEK-293 cells transferred with the human Edg-1 (S1P1) gene
- STATED_CONDITIONS: test compound 10 μM; inhibition of [33P]-S1P binding, membrane fraction
OBSERVATION_TYPE: inhibition at 10 µM (%)
Numbers only, in %.

Please state, for each entry, its recorded inhibition at 10 µM.
1. CCn1c(Oc2cccc(N3CCN(C)CC3)c2)nnc1[C@@H](C)NS(=O)(=O)c1ccc(C(F)(F)F)cc1Br
2. CCn1c(Oc2cccc(N3CCN(C)CC3)c2)nnc1[C@@H](C)NS(=O)(=O)CC(c1ccccc1)c1ccccc1
3. CCn1c(Oc2cccc(N3CCN(C)CC3)c2)nnc1[C@@H](C)NS(=O)(=O)c1ccc(OC(F)F)cc1
4. CCn1c(Oc2cccc(N3CCN(C)CC3)c2)nnc1[C@@H](C)NS(=O)(=O)c1ccc(C#N)cc1Cl

// result
[91.2, 60, 107, 81.4]

src = patent US8022091B2
